Origin of values: patent US20080022467A1

Assay: Light stability of printed patches (Weather-Ometer, xenon lamp)
Type: physicochemical
Parameters: key: A: excellent; B: good; C: satisfactory; D: unsatisfactory
Conditions: B: HP Premium Plus (polymer based); 20 megalux hours
Parameter: Light Stability (Class) on Recording Sheet B

O=S(=O)([O-])c1cc(/N=N/c2ccc(Nc3nc(NCCO)nc(Nc4ccc(/N=N/c5cc(S(=O)(=O)[O-])c6cccc(S(=O)(=O)[O-])c6c5)cc4)n3)cc2)cc2c(S(=O)(=O)[O-])cccc12.[Na+].[Na+].[Na+].[Na+] [Dye No. I, reference compound] : A
O=S(=O)([O-])CCNc1nc(Nc2ccc(N=Nc3cc(S(=O)(=O)[O-])c4cccc(S(=O)(=O)[O-])c4c3)cc2)nc(Nc2ccc(N=Nc3cc(S(=O)(=O)[O-])c4cccc(S(=O)(=O)[O-])c4c3)cc2)n1.[Na+].[Na+].[Na+].[Na+].[Na+] : A
O=S(=O)([O-])CCCSc1nc(Nc2ccc(N=Nc3ccc4cc(S(=O)(=O)[O-])cc(S(=O)(=O)[O-])c4c3)cc2)nc(Nc2ccc(N=Nc3ccc4cc(S(=O)(=O)[O-])cc(S(=O)(=O)[O-])c4c3)cc2)n1.[Na+].[Na+].[Na+].[Na+].[Na+] : A
O=S(=O)([O-])c1cc(/N=N/c2ccc(Nc3nc(NCCCN4CCOCC4)nc(Nc4ccc(/N=N/c5cc(S(=O)(=O)[O-])c6cccc(S(=O)(=O)[O-])c6c5)cc4)n3)cc2)cc2c(S(=O)(=O)[O-])cccc12.[Na+].[Na+].[Na+].[Na+] [Dye No. IV, reference compound] : A
O=C([O-])c1cc(Nc2nc(Nc3ccc(N=Nc4cc(S(=O)(=O)[O-])c5cccc(S(=O)(=O)[O-])c5c4)cc3)nc(Nc3ccc(N=Nc4cc(S(=O)(=O)[O-])c5cccc(S(=O)(=O)[O-])c5c4)cc3)n2)cc(C(=O)[O-])c1.[Na+].[Na+].[Na+].[Na+].[Na+].[Na+] : A

INPUT: Hello, please tell me recorded Light Stability (Class) on Recording Sheet B for this one: "O=S(=O)([O-])CCCSc1nc(Nc2ccc(N=Nc3cc(S(=O)(=O)[O-])c4cccc(S(=O)(=O)[O-])c4c3)cc2)nc(Nc2ccc(N=Nc3cc(S(=O)(=O)[O-])c4cccc(S(=O)(=O)[O-])c4c3)cc2)n1.[Na+].[Na+].[Na+].[Na+].[Na+]"
OUTPUT: A

---

Test: Stability against degradation by ozone of printed patches
Assay type: physicochemical
Design: key: A: excellent; B: good; C: satisfactory; D: unsatisfactory
Conditions: D: ILFORD Printasia Premium Photo Glossy Paper (nanoporous); ozone 1 ppm, 30° C., 50% relative humidity
Parameter: Resistance against Degradation by Ozone (Class) on Recording Sheet D

O=S(=O)([O-])c1cc(/N=N/c2ccc(Nc3nc(NCCCN4CCOCC4)nc(Nc4ccc(/N=N/c5cc(S(=O)(=O)[O-])c6cccc(S(=O)(=O)[O-])c6c5)cc4)n3)cc2)cc2c(S(=O)(=O)[O-])cccc12.[Na+].[Na+].[Na+].[Na+] [Dye No. IV, reference compound] : B
Cc1cc(Nc2nc(NCCO)nc(Nc3ccc(/N=N/c4cc(S(=O)(=O)[O-])c5cccc(S(=O)(=O)[O-])c5c4)c(C)c3)n2)ccc1/N=N/c1cc(S(=O)(=O)[O-])c2cccc(S(=O)(=O)[O-])c2c1.[Na+].[Na+].[Na+].[Na+] [Dye No. II, Direct Yellow 86, reference compound] : B
O=C([O-])c1cc(Nc2nc(Nc3ccc(N=Nc4cc(S(=O)(=O)[O-])c5cccc(S(=O)(=O)[O-])c5c4)cc3)nc(Nc3ccc(N=Nc4cc(S(=O)(=O)[O-])c5cccc(S(=O)(=O)[O-])c5c4)cc3)n2)cc(C(=O)[O-])c1.[Na+].[Na+].[Na+].[Na+].[Na+].[Na+] [Dye No. 18] : A
O=S(=O)([O-])CCCSc1nc(Nc2ccc(N=Nc3cc(S(=O)(=O)[O-])c4cccc(S(=O)(=O)[O-])c4c3)cc2)nc(Nc2ccc(N=Nc3cc(S(=O)(=O)[O-])c4cccc(S(=O)(=O)[O-])c4c3)cc2)n1.[Na+].[Na+].[Na+].[Na+].[Na+] [Dye No. 10] : A

INPUT: Hello, please tell me recorded Resistance against Degradation by Ozone (Class) on Recording Sheet D for this one: CN(CCS(=O)(=O)[O-])c1nc(Nc2ccc(N=Nc3ccc4cc(S(=O)(=O)[O-])cc(S(=O)(=O)[O-])c4c3)cc2)nc(Nc2ccc(N=Nc3ccc4cc(S(=O)(=O)[O-])cc(S(=O)(=O)[O-])c4c3)cc2)n1.[Na+].[Na+].[Na+].[Na+].[Na+] [Dye No. 17]
OUTPUT: A
